system: rodent lifetime carcinogenesis bioassay, tumor incidence TD50; test: carcinogenic potency in animals, long-term in vivo studies, CPDB compilation (AID 1745844); settings: mouse; strain B6C3F1; males; in feed; site: all sites; lesion: lymphoma; dosed 103 weeks; study length 107 weeks
quantity name: TD50 (mg/kg/day)
// units = mg/kg/day; emit number, no label

TD50 lookup needed for CC(C)(c1ccc(O)cc1)c1ccc(O)cc1 , thanks. 508

---

tested on: rodent lifetime carcinogenesis bioassay, tumor incidence TD50; assay: carcinogenic potency in animals, long-term in vivo studies, CPDB compilation (AID 1745844); conditions: rat; strain BD IX; females; in drinking water; site: nasal and paranasal cavity; lesion: adenocarcinoma; dosed 104 weeks; study length 104 weeks
quantity name: TD50

Please look up its TD50: C=CCN(CC=C)N=O 33.6 mg/kg/day

---

system: rodent lifetime carcinogenesis bioassay, tumor incidence TD50; assay: carcinogenic potency in animals, long-term in vivo studies, CPDB compilation (AID 1745844); conditions: rat; strain Wistar; females; in feed; site: tongue; lesion: several types; types named in the paper; dosed 96 weeks; study length 101 weeks
quantity name: TD50 (mg/kg/day)
The reply should contain only the number, in mg/kg/day.

Suppose we examine the compound O=P(O)(OCC(Br)CBr)OCC(Br)CBr (stereo unspecified) ; what TD50 value has been reported? 301

---

Measured TD50 values are reported for all entries that follow.
tested on: rodent lifetime carcinogenesis bioassay, tumor incidence TD50; assay: carcinogenic potency in animals, long-term in vivo studies, CPDB compilation (AID 1745844); settings: mouse; strain B6C3F1; males; in feed; site: liver; lesion: several types; types named in the paper; dosed 104 weeks; study length 104 weeks

CC(C)CCCCCCOC(=O)c1ccccc1C(=O)OCCCCCCC(C)C	1590 mg/kg/day
CC(C)(CCCOc1ccc(OCCCC(C)(C)C(=O)O)c(-c2ccccc2)c1)C(=O)O	45 mg/kg/day
CN(C)CCOC(C)(c1ccccc1)c1ccccn1 (stereo not given)	125 mg/kg/day
Cc1cc(C)nc(NS(=O)(=O)c2ccc(N)cc2)n1	11700 mg/kg/day

Consider the compound C#CC(C)(C)NC(=O)c1cc(Cl)cc(Cl)c1 and give its measured TD50. 209 mg/kg/day

---

test system: rodent lifetime carcinogenesis bioassay, tumor incidence TD50; assay: carcinogenic potency in animals, long-term in vivo studies, CPDB compilation (AID 1745844); settings: mouse; strain B6C3F1; males; i.p.; site: all sites; lesion: leukemia + lymphocytic leukemia + lymphoma; dosed 52 weeks; study length 83 weeks
quantity name: TD50 (mg/kg/day)
Provide only the numeric value, understood in mg/kg/day.

TD50 lookup needed for S=P(N1CC1)(N1CC1)N1CC1 , thanks. 0.241

---

test system: rodent lifetime carcinogenesis bioassay, tumor incidence TD50; test: carcinogenic potency in animals, long-term in vivo studies, CPDB compilation (AID 1745844); conditions: mouse; strain Charles River CD1; males; in feed; site: lung; lesion: adenocarcinoma; dosed 104 weeks; study length 104 weeks
The source made the active and inactive calls. The rule behind the calls is not given here.
quantity name: TD50

Value lookup for TD50; key = CCN(Cc1cccc(S(=O)(=O)O)c1)c1ccc(C(=C2C=CC(=[N+](CC)Cc3cccc(S(=O)(=O)O)c3)C=C2)c2ccccc2S(=O)(=O)[O-])cc1 293000 mg/kg/day (inactive)

---

system: rodent lifetime carcinogenesis bioassay, tumor incidence TD50; assay: carcinogenic potency in animals, long-term in vivo studies, CPDB compilation (AID 1745844); details: rat; strain Fischer 344; males; oral dosing; site: any site (literature study); lesion: several types; types named in the paper; dosed 78 weeks; study length 104 weeks
quantity name: TD50 (mg/kg/day)
Report the value in mg/kg/day with no unit label.

TD50 for COc1cc(-c2ccc(N=C=O)c(OC)c2)ccc1N=C=O ? 809

---

tested on: rodent lifetime carcinogenesis bioassay, tumor incidence TD50; assay: carcinogenic potency in animals, long-term in vivo studies, CPDB compilation (AID 1745844); settings: mouse; strain BALB/c; males; i.p.; site: skin; lesion: several types; types named in the paper; dosed 50 weeks; study length 67 weeks
quantity name: TD50

Find the recorded TD50 belonging to Nc1ncn([C@@H]2O[C@H](CO)[C@@H](O)[C@H]2O)c(=O)n1 and report it. 0.98 mg/kg/day

---

Entries and their TD50
test system: rodent lifetime carcinogenesis bioassay, tumor incidence TD50; experiment: carcinogenic potency in animals, long-term in vivo studies, CPDB compilation (AID 1745844); conditions: mouse; strain B6AKF1; males; oral dosing; site: lung; lesion: adenoma; dosed 76 weeks; study length 76 weeks
The source made the active and inactive calls. The rule behind the calls is not given here.

What TD50 appears in the records for this compound with rodent lifetime carcinogenesis bioassay, tumor incidence TD50? c1ccc(Nc2ccc3ccccc3c2)cc1 431 mg/kg/day

Which TD50 is reported with rodent lifetime carcinogenesis bioassay, tumor incidence TD50 for this entry: ClC1=C(Cl)C2(Cl)C3C(Cl)OC(Cl)C3C1(Cl)C2(Cl)Cl (stereo unspecified) ? 0.146 mg/kg/day (inactive)

Field: TD50 (rodent lifetime carcinogenesis bioassay, tumor incidence TD50). Entry: Clc1ccc(C(c2ccccc2Cl)C(Cl)Cl)cc1 (stereo unspecified) 414 mg/kg/day

---

tested on: rodent lifetime carcinogenesis bioassay, tumor incidence TD50; experiment: carcinogenic potency in animals, long-term in vivo studies, CPDB compilation (AID 1745844); settings: rat; strain Wistar-random; females; in feed; site: urinary bladder; lesion: several types; types named in the paper; dosed 130 weeks; study length 130 weeks
quantity name: TD50

// lookup TD50 for O=C(O)O 12800 mg/kg/day

---

tested on: rodent lifetime carcinogenesis bioassay, tumor incidence TD50; assay: carcinogenic potency in animals, long-term in vivo studies, CPDB compilation (AID 1745844); conditions: rat; strain Fischer 344; males; in feed; site: Zymbal's gland; lesion: carcinoma + carcinoma, bilateral; dosed 12 weeks; study length 103 weeks
quantity name: TD50 (mg/kg/day)
Entry rule: numbers only, all in mg/kg/day.

What value of measured TD50 is listed for OCC(CO)(CBr)CBr ? 138

---

tested on: rodent lifetime carcinogenesis bioassay, tumor incidence TD50; test: carcinogenic potency in animals, long-term in vivo studies, CPDB compilation (AID 1745844); details: rat; strain Fischer 344; females; in drinking water; site: skin; lesion: squamous-cell carcinoma; dosed 60 weeks; study length 60 weeks
quantity name: TD50

What does the data say about its TD50? Entry: Cc1cc(-c2ccc(N)c(C)c2)ccc1N 5.56 mg/kg/day

---

test system: rodent lifetime carcinogenesis bioassay, tumor incidence TD50; assay: carcinogenic potency in animals, long-term in vivo studies, CPDB compilation (AID 1745844); details: mouse; strain ICR/Jcl; males; in drinking water; site: liver; lesion: one or several types; types not named; dosed 109 weeks; study length 109 weeks
Active and inactive are the calls of the source. The rule behind the calls is not given here.
quantity name: TD50

# TD50 lookup, item O=NO 25000 mg/kg/day (inactive)

---

test system: rodent lifetime carcinogenesis bioassay, tumor incidence TD50; test: carcinogenic potency in animals, long-term in vivo studies, CPDB compilation (AID 1745844); conditions: mouse; strain B6C3F1; males; in feed; site: liver; lesion: hepatocellular adenoma; dosed 78 weeks; study length 78 weeks
Calls of active or inactive are those of the source. How the calls were made is not given here.
// classify into active, inactive

Take a look at these entries with their results.
O=C(O)c1cc(Oc2ccc(C(F)(F)F)cc2Cl)ccc1[N+](=O)[O-]	active
CN(C)c1ccc(C(=C2C=CC(=[N+](C)C)C=C2)c2ccc(N(C)C)cc2)cc1	inactive

Answer briefly: the call reported for CN1CCCC1=O in this assay. active

---

tested on: rodent lifetime carcinogenesis bioassay, tumor incidence TD50; assay: carcinogenic potency in animals, long-term in vivo studies, CPDB compilation (AID 1745844); settings: rat; strain MRC; males; by gavage; site: nasopharynx; lesion: papilloma; dosed 51 weeks; study length 58 weeks
quantity name: TD50 (mg/kg/day)
The figure you give is taken to be in mg/kg/day; do not add the unit.

Requested field: TD50. Item: CC(=O)CN(C)N=O 0.942

---

system: rodent lifetime carcinogenesis bioassay, tumor incidence TD50; test: carcinogenic potency in animals, long-term in vivo studies, CPDB compilation (AID 1745844); conditions: rat; strain Sprague-Dawley; females; inhaled; site: liver; lesion: hepatoma; dosed 52 weeks; study length 139 weeks
quantity name: TD50

Recorded TD50 for C=CCl , please? 140 mg/kg/day

---

TD50: recorded values
system: rodent lifetime carcinogenesis bioassay, tumor incidence TD50; assay: carcinogenic potency in animals, long-term in vivo studies, CPDB compilation (AID 1745844); conditions: mouse; strain C57BL/10J; males; in feed; site: liver; lesion: hepatocellular adenoma; dosed 78 weeks; study length 78 weeks
Calls of active or inactive are those of the source. The rule behind the calls is not given here.

CCOC(=O)C(C)(C)Oc1ccc(Cl)cc1	3640 mg/kg/day (inactive)

I would be grateful if you could share the reported TD50 for CC(C)(OCc1ccc(-c2ccc(Cl)cc2)cc1)C(=O)O . 154 mg/kg/day

---

tested on: rodent lifetime carcinogenesis bioassay, tumor incidence TD50; test: carcinogenic potency in animals, long-term in vivo studies, CPDB compilation (AID 1745844); conditions: rat; strain Sprague-Dawley; males; by gavage; site: any site (literature study); lesion: several types; types named in the paper; dosed 52 weeks; study length 85 weeks
Active and inactive are the calls of the source. No rule for the calls is given here.
quantity name: TD50

Recorded TD50 for C[C@]12CC[C@@H]3c4ccc(OC(=O)Cc5ccc(N(CCCl)CCCl)cc5)cc4CC[C@H]3[C@@H]1CC[C@@H]2OC(=O)Cc1ccc(N(CCCl)CCCl)cc1 , please? 3.85 mg/kg/day (inactive)
